Values compiled from patent US20240309103A1.

Measured kon of individual entries
- system: T1, human NPR1 extracellular domain expressed with a C-terminal mouse IgG2a (hNPR1-mFc) (human)
- T1 construct: also called hNPR1-Fc; human NPR1 dimer
- T1 chain: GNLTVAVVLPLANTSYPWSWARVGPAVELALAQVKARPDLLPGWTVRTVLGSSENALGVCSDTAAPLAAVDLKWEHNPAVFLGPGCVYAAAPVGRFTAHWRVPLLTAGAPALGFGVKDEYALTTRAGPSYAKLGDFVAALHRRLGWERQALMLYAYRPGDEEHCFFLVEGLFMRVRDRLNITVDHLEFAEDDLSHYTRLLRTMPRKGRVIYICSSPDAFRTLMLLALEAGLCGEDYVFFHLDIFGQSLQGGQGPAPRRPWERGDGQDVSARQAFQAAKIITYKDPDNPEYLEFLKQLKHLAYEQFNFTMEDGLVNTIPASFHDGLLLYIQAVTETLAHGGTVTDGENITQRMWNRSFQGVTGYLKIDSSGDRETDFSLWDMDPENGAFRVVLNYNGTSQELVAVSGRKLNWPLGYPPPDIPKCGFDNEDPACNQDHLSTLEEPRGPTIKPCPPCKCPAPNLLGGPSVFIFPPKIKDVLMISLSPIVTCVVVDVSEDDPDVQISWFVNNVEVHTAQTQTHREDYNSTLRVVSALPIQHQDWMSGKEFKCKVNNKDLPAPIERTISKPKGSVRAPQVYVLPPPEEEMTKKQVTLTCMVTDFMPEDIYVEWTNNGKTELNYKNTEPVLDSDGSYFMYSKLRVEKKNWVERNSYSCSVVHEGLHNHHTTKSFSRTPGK
- method notes: SPR, mAb captured, 25 C

>>> reported_value("mAb22033 (antibody, V domains shown) VH: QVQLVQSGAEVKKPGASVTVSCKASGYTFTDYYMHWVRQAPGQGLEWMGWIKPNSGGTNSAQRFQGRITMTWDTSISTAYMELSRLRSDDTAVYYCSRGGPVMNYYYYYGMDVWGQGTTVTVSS VL: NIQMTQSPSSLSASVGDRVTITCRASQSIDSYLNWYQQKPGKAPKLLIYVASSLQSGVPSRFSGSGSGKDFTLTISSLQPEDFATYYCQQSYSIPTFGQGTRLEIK")
"61800 M⁻¹ s⁻¹"
>>> reported_value("mAb25497 (antibody, V domains shown) VH: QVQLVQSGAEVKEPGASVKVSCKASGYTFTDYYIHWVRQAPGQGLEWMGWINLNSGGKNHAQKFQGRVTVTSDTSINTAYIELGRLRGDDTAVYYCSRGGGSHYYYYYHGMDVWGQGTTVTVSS VL: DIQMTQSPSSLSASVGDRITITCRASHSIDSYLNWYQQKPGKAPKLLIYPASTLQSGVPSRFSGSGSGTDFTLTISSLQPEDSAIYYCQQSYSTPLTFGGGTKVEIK")
"203000 M⁻¹ s⁻¹"

Query kon for mAb25491 (antibody, V domains shown) VH: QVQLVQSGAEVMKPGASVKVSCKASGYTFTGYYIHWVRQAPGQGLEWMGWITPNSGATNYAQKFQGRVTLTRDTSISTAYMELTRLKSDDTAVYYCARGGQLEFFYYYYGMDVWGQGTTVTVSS VL: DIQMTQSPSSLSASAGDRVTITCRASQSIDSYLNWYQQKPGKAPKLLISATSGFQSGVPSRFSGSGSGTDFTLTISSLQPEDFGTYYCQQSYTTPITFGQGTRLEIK 101000 M⁻¹ s⁻¹
